// data source = patent US11022604B2

System: PC-3 androgen independent metastatic prostate cancer cells
Assay Notes: Cell viability screen (CCK-8), PC-3 cells
Format: cell-based
Experimental Setup: Homo sapiens, PC-3, 96 h, CCK-8, 96 hours, read-out: IC50, inhibition of cell viability
pIC50: −log10 of the molar value.

{"Sample Smiles": "O=C(c1cc(F)cc2c1OCOC2)N1CCN(C2c3ccccc3-c3ccccc32)CC1", "Experimental System": "PC-3 androgen independent metastatic prostate cancer cells", "pIC50": "~6.10"}

====

Experimental System: Peptide G (37 LR binding site for laminin, aa 161-180) (Homo sapiens)
Construct: purchased United Biosystems; host or cells: chemical synthesis
Sequence (P08865 161-180 limits assumed): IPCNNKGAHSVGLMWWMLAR
Assay Notes: Intrinsic tryptophan fluorescence binding assay, Peptide G
Experimental Setup: 50 μM Peptide G, titration 0.1 to 100 μM; read-out: EC50, reduction of intrinsic tryptophan fluorescence
Measurement Label: EC50 (µM)

{"Compound": "O=C(c1cc(F)cc2c1OCOC2)N1CCN(C2c3ccccc3-c3ccccc32)CC1 [Compound C3]", "Uom": "µM", "Value Reported": 16.1}
